Where do these numbers come from? They come from patent US10479780B2.

# target.under.test: human Src enzyme (Homo sapiens, UniProt P12931)
# Construct: purchased Carna Biosciences, Inc. 08-173
# Sequence (P12931 whole entry): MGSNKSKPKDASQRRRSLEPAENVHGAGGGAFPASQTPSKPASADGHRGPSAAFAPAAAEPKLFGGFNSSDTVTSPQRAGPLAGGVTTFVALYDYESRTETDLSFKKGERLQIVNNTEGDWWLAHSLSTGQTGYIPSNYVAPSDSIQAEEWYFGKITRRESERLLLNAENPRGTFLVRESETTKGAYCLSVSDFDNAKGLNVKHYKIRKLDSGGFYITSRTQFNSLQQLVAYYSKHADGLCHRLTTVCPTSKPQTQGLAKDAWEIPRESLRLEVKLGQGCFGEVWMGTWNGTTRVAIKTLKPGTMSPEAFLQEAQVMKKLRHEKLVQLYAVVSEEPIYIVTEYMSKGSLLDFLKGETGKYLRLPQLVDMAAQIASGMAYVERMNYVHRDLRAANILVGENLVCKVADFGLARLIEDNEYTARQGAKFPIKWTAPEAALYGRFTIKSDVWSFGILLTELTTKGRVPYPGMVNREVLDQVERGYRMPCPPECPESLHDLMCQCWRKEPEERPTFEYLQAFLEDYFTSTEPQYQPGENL
# test.details: Src enzyme inhibitory activity (time-resolved fluorometry, biotinylated peptide phosphorylation)
# Format: biochemical
# experimental.context: read-out: SRC_IC50
measured.quantity: IC50 (nM)

These recorded examples may help you get a feel for the data.
cpd_smiles=Cc1cc(Oc2ccccc2F)ccc1-n1ncc(C(=O)c2cc3cc(OCC(F)F)c(N4C(=O)N[C@@H](Cc5ccc(O)cc5)C4=O)cc3[nH]2)c1N target_under_test="human Src enzyme (Homo sapiens, UniProt P12931)" measured_quantity=IC50 value_observed=25
cpd_smiles=Cc1cc(Oc2ccccc2F)ccc1-n1ncc(C(=O)c2cc3cc(C(C)C)c(Br)cc3[nH]2)c1N target_under_test="human Src enzyme (Homo sapiens, UniProt P12931)" measured_quantity=IC50 value_observed=61
cpd_smiles=Cc1cc(Oc2c(F)cccc2F)ncc1-n1ncc(C(=O)c2cc3cc(C4CC4)c(NS(=O)(=O)C4CCOCC4)cc3[nH]2)c1N target_under_test="human Src enzyme (Homo sapiens, UniProt P12931)" measured_quantity=IC50 value_observed=210
cpd_smiles=Cc1cc(Oc2ccccc2F)cc(F)c1-n1ncc(C(=O)c2cc3cc(OC(F)F)c(NS(C)(=O)=O)cc3[nH]2)c1N target_under_test="human Src enzyme (Homo sapiens, UniProt P12931)" measured_quantity=IC50 value_observed=120
cpd_smiles=Cc1cc(Oc2ccccc2F)ccc1-n1ncc(C(=O)c2cc3cc(F)c(N4CCN(S(C)(=O)=O)CC4)cc3[nH]2)c1N target_under_test="human Src enzyme (Homo sapiens, UniProt P12931)" measured_quantity=IC50 value_observed=33
cpd_smiles=Cc1cc(Oc2c(F)cccc2F)ncc1-n1ncc(C(=O)c2cc3cc(OCC(F)F)c(NS(=O)(=O)c4ccc(F)cc4)cc3[nH]2)c1N target_under_test="human Src enzyme (Homo sapiens, UniProt P12931)" measured_quantity=IC50 value_observed=580
cpd_smiles=Cc1cc(-n2ncc(C(=O)c3cc4cc(OC5CCN(C(C)C)CC5)c(N5CCOCC5)cc4[nH]3)c2N)ccc1Oc1ccccc1F target_under_test="human Src enzyme (Homo sapiens, UniProt P12931)" measured_quantity=IC50 value_observed=46
cpd_smiles=Cc1cc(Oc2ccccc2F)ccc1-n1ncc(C(=O)c2cc3cc(OC4CCN(C(C)C)CC4)c(N4CCOC4=O)cc3[nH]2)c1N target_under_test="human Src enzyme (Homo sapiens, UniProt P12931)" measured_quantity=IC50 value_observed=1.1

I: Cc1cc(-n2ncc(C(=O)c3cc4cc(OCC(F)F)c(N5CCOC5=O)cc4[nH]3)c2N)ccc1Oc1ccccc1F
II: Cc1cc(Oc2c(F)cccc2F)ncc1-n1ncc(C(=O)c2cc3cc(OC4CCN(C5CCCC5)CC4)c(Br)cc3[nH]2)c1N
III: Cc1cc2cc(C(=O)c3cnn(-c4ccc(Oc5ccccc5F)cc4C)c3N)[nH]c2cc1N1C(=O)NC2(CCN(C3COC3)CC2)C1=O
Please list the entries, largest IC50 first. // respond by listing labels in the order requested
I, III, II

I: Cc1cc(Oc2c(F)cccc2F)ncc1-n1ncc(C(=O)c2cc3cc(OC4CCN(C5CC5)CC4)c(Br)cc3[nH]2)c1N
II: Cc1cc(-n2ncc(C(=O)c3cc4cc(OC(F)F)c(N5CCC(N6CCOCC6)CC5)cc4[nH]3)c2N)ccc1Oc1ccccc1F
III: Cc1cc(Oc2c(F)cccc2F)ncc1-n1ncc(C(=O)c2cc3cc(OC4CCN(C(C)C)CC4)c(N4CCN(S(C)(=O)=O)CC4)cc3[nH]2)c1N
IV: Cc1cc(Oc2ccccc2F)ncc1-n1ncc(C(=O)c2cc3cc(SC(F)F)c(N4C(=O)NC(C)(C)C4=O)cc3[nH]2)c1N
V: COc1cc2cc(C(=O)c3cnn(-c4c(C)cc(Oc5ccccc5F)cc4F)c3N)[nH]c2cc1NS(=O)(=O)CC(=O)NC(C)C
Order the records, beginning with the lowest IC50 and ending with the highest. // respond by listing labels in the order requested
III, I, V, IV, II
(III: 3.2 nM, I: 17 nM, V: 41 nM, IV: 130 nM, II: 390 nM)

I: Cc1cc(Oc2ccccc2F)cc(C)c1-n1ncc(C(=O)c2cc3cc(F)c(NS(C)(=O)=O)cc3[nH]2)c1N
II: Cc1cc2cc(C(=O)c3cnn(-c4cnc(Oc5ccccc5)cc4C)c3N)[nH]c2cc1NS(C)(=O)=O
III: Cc1cc(-n2ncc(C(=O)c3cc4cc(OC5CCN(C6CS(=O)(=O)C6)CC5)c(-c5ccccc5F)cc4[nH]3)c2N)ccc1Oc1ccccc1F
IV: Cc1cc2cc(C(=O)c3cnn(-c4ccc(Oc5ccccc5F)cc4C)c3N)[nH]c2cc1N1C(=O)NC2(CCN(Cc3ccccc3)CC2)C1=O
V: Cc1ccccc1-c1cc2[nH]c(C(=O)c3cnn(-c4cnc(Oc5c(F)cccc5F)cc4C)c3N)cc2cc1OC1CCN(C2CS(=O)(=O)C2)CC1
Order the records, beginning with the lowest IC50 and ending with the highest. // respond by listing labels in the order requested
II, IV, V, I, III

I: Cc1cc(-n2ncc(C(=O)c3cc4cc(OC5CCN(C(C)C)CC5)c(Cl)cc4[nH]3)c2N)ccc1Oc1cccc(F)c1
II: Cc1cc2cc(C(=O)c3cnn(-c4ccc(Oc5ncccc5Cl)cc4Cl)c3N)[nH]c2cc1N1CCCS1(=O)=O
III: Cc1cc2cc(C(=O)c3cnn(-c4ccc(Oc5ncccc5Cl)cc4Cl)c3N)[nH]c2cc1NS(=O)(=O)CCCF
Order the records, beginning with the lowest IC50 and ending with the highest. // respond by listing labels in the order requested
II, III, I

---

# target.under.test: human Yes1 enzyme (Homo sapiens)
# Construct: made in house
# Sequence (P07947 whole entry): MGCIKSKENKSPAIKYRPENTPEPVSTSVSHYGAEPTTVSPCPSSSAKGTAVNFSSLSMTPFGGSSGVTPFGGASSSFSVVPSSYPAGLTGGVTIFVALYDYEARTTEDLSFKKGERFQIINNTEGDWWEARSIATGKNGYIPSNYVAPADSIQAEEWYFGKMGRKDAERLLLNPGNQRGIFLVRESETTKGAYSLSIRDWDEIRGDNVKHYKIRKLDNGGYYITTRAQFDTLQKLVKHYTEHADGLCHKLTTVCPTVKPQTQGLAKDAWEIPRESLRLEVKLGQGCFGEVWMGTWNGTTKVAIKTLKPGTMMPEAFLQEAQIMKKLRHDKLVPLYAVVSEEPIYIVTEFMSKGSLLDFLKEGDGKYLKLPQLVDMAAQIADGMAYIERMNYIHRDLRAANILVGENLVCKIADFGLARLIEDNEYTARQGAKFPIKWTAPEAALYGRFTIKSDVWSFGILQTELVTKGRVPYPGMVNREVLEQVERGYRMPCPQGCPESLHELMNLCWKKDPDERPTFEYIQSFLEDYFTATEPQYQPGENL
# test.details: Yes1 enzyme inhibitory activity (time-resolved fluorometry, biotinylated peptide phosphorylation)
# Format: biochemical
# experimental.context: read-out: YES_IC50
pIC50: −log10 of the molar value.
measured.quantity: pIC50

cpd_smiles=Nc1c(C(=O)c2cc3cc(F)c(NS(=O)(=O)CCCF)cc3[nH]2)cnn1-c1ccc(Oc2ncccc2Cl)cc1Cl target_under_test="human Yes1 enzyme (Homo sapiens)" value_observed=9.04
cpd_smiles=Cc1cc2cc(C(=O)c3cnn(-c4cnc(Oc5ccccc5F)cc4C)c3N)[nH]c2cc1NS(=O)(=O)NC1CCOCC1 target_under_test="human Yes1 enzyme (Homo sapiens)" value_observed=8.70
cpd_smiles=Cc1cc2cc(C(=O)c3cnn(-c4cnc(Oc5c(F)cccc5F)cc4C)c3N)[nH]c2cc1N1C(=O)NC2(CCOCC2)C1=O target_under_test="human Yes1 enzyme (Homo sapiens)" value_observed=8.77

I: Cc1cc2cc(C(=O)c3cnn(-c4ccc(Oc5c(F)cccc5Cl)cc4C)c3N)[nH]c2cc1NS(C)(=O)=O
II: Cc1cc(Oc2c(F)cccc2F)ncc1-n1ncc(C(=O)c2cc3cc(OCC(F)F)c(NS(=O)(=O)c4ccc(Cl)cc4)cc3[nH]2)c1N
III: Cc1cc(-n2ncc(C(=O)c3cc4cc(OC5CCN(C6CCC6)CC5)c(F)cc4[nH]3)c2N)ccc1Oc1ccccc1F
Please list the entries, largest pIC50 first. // respond by listing labels in the order requested
I, III, II

---

# target.under.test: human Lck enzyme (Homo sapiens, UniProt P06239)
# Construct: purchased Carna Biosciences, Inc. 08-170
# Sequence (P06239 whole entry): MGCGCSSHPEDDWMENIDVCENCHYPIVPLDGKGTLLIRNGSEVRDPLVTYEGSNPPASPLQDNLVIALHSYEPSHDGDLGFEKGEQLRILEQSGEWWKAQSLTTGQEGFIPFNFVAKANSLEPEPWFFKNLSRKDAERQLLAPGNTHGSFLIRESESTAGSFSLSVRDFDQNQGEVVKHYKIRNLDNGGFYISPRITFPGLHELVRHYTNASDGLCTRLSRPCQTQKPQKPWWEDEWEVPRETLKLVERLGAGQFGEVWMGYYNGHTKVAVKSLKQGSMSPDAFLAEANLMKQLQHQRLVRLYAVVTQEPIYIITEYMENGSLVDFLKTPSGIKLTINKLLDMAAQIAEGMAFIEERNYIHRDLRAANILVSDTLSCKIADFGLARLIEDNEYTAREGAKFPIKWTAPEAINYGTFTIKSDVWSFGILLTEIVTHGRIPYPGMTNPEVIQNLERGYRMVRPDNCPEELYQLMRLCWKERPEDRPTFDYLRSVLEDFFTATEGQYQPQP
# test.details: Lck enzyme inhibitory activity (time-resolved fluorometry, biotinylated peptide phosphorylation)
# Assay type: biochemical
# experimental.context: read-out: LCK_IC50
measured.quantity: IC50 (nM)

These recorded examples may help you get a feel for the data.
cpd_smiles=CC(C)N1CCC(c2cc3[nH]c(C(=O)c4cnn(-c5ccc(Oc6cccc(F)c6)cc5F)c4N)cc3cc2F)CC1 value_observed=6
cpd_smiles=Cc1cc(-n2ncc(C(=O)c3cc4cc(OC(F)F)c(N5CCOCC5)cc4[nH]3)c2N)ccc1Oc1ccccc1F value_observed=100
cpd_smiles=Cc1cc(Oc2c(F)cccc2F)ncc1-n1ncc(C(=O)c2cc3cc(SC(F)F)c(NS(=O)(=O)CCCF)cc3[nH]2)c1N value_observed=140
cpd_smiles=Cc1cc2cc(C(=O)c3cnn(-c4cnc(Oc5ccccc5F)cc4C)c3N)[nH]c2cc1N1C(=O)NC(C)(C)C1=O value_observed=4
cpd_smiles=Cc1cc2cc(C(=O)c3cnn(-c4cnc(Oc5ccccc5F)cc4C)c3N)[nH]c2cc1NS(=O)(=O)CC(=O)NC(C)C value_observed=25
cpd_smiles=Cc1cc(-n2ncc(C(=O)c3cc4cc(OC5CCN(C(C)C)CC5)c(N5CCOC5=O)cc4[nH]3)c2N)ccc1Oc1ccccc1F value_observed=3.4

a: Cc1cc(-n2ncc(C(=O)c3cc4cc(F)c(NS(C)(=O)=O)cc4[nH]3)c2N)cnc1Oc1cc(F)cc(F)c1
b: Cc1ccc(S(=O)(=O)Nc2cc3[nH]c(C(=O)c4cnn(-c5cnc(Oc6c(F)cccc6F)cc5C)c4N)cc3cc2OCC(F)F)cc1
c: Cc1cc2cc(C(=O)c3cnn(-c4cnc(Oc5ccccc5)cc4C)c3N)[nH]c2cc1NS(C)(=O)=O
d: Cc1cc(Oc2ccccc2F)ncc1-n1ncc(C(=O)c2cc3cc(OC4CCN(C(C)C)CC4)c(Br)cc3[nH]2)c1N
Order the records, beginning with the lowest IC50 and ending with the highest. // respond by listing labels in the order requested
c, d, b, a
(c: 1.4 nM, d: 3 nM, b: 140 nM, a: 4400 nM)

a: COc1ccc(S(=O)(=O)Nc2cc3[nH]c(C(=O)c4cnn(-c5cnc(Oc6c(F)cccc6F)cc5C)c4N)cc3cc2OCC(F)F)cc1
b: Cc1cc2cc(C(=O)c3cnn(-c4cnc(Oc5c(F)cccc5F)cc4C)c3N)[nH]c2cc1N1C(=O)NC2(CCCC2)C1=O
Which entry shows the lesser value of IC50 here, a or b ? Mark your answer with the label of the selected entry.
b
(b: 16 nM, a: 120 nM)
